Numbers sourced from paper PMC6125496.

assay: in vitro; settings: rat, cryopreserved pooled hepatocytes
Non-standard residues stand in square brackets, D forms with d. Residues, ends and D or L forms follow the SMILES beside them. Dab(3S-OH) = NC[C@H](O)[C@H](N)C(=O)O; Phe(2-F) = N[C@@H](Cc1ccccc1F)C(=O)O; ΔZArg = N=C(N)NCC/C=C(\N)C(=O)O; dOrn = NCCC[C@@H](N)C(=O)O; Dab = NCC[C@H](N)C(=O)O
measured_attribute: half-life at 1 μM (h)
Quick note: give the figure in h, leave out the unit.

Form field: reported half-life at 1 μM of N=C(N)NCC/C=C(\NC(=O)[C@H](CCCCN)NC(=O)[C@H](Cc1ccccc1F)NC(=O)[C@@H]1CCCN1C(=O)[C@@H](CCCN)NC(=O)CNC(=O)[C@H](CCN)NC(=O)[C@@H](NC(=O)[C@@H](N)CCCCN)[C@@H](O)CN)C(=O)O [NOSO-502] (H-K[Dab(3S-OH)][Dab]G[dOrn]P[Phe(2-F)]K[ΔZArg]-OH)
3.23
